src = patent US20240228489A1

target: human mAChR M1 (Homo sapiens); experiment: mAChR M1 cell-based functional assay (calcium mobilization), agonist mode: compound alone, Emax relative to acetylcholine maximum; conditions: relative to the maximum for acetylcholine
Each entry gets not met if its Emax stays under 2%, and met if its Emax is 2% or above.

[2H]C1([2H])c2ncccc2C(=O)N1Cc1c(F)cc(-c2ccc(OC3CN(C4CCCCC4)C3)c3nn(C)cc23)cc1F [Compound 189] : met
[2H]C([2H])([2H])Oc1ccc(-c2ccc(CN3C(=O)c4cccnc4C3([2H])[2H])c(F)c2)c2cn(C)nc12 [Compound 107] : met
[2H]C1([2H])c2ncccc2C(=O)N1Cc1c(F)cc(-c2ccc(OC3CCOC3)c3nn(C)cc23)cc1F (stereo not shown) [Compound 127] : met

Here is the next item to consider.
Evaluate [2H]C1([2H])c2ncccc2C(=O)N1Cc1c(F)cc(-c2cccc3nn(C([2H])([2H])[2H])cc23)cc1OC [Compound 232] : Emax at minimum 2%?
met

* * *

Biological target: human mAChR M1 (Homo sapiens, UniProt P11229)
Sequence (P11229 1-460): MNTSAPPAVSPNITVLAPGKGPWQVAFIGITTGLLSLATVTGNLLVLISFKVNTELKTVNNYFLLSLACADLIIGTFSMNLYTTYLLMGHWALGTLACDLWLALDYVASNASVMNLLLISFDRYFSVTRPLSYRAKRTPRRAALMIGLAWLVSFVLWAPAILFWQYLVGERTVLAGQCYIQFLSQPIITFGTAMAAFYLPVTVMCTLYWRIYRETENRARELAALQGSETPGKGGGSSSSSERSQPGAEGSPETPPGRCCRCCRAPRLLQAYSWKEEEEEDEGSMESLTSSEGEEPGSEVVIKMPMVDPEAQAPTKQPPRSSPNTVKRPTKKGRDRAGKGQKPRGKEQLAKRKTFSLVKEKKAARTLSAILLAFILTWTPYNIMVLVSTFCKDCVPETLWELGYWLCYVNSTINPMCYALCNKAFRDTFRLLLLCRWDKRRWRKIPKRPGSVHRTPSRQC
Assay: mAChR M1 cell-based functional assay (calcium mobilization), agonist mode: compound alone, Emax relative to acetylcholine maximum
Conditions: human mAChR M1
Description: Chinese hamster ovary (CHO-K1) cells stably expressing rat (r)M1 were purchased from the American Type Culture Collection and cultured according to their indicated protocol. […] Calcium flux was measured using the Functional Drug Screening System (FDSS) 6000 (Hamamatsu Corporation, Tokyo, Japan) as an increase in the fluorescent static ratio. […] Agonist activity was analyzed as a concentration-dependent increase in calcium mobilization upon compound addition. […]
measurement.kind: EC50

[2H]C1([2H])c2ncccc2C(=O)N1Cc1ccc(-c2ccc3nn(C)cc3c2)cc1C : > 10 µM

# return EC50 for each item in the list
1. [2H]C1([2H])c2ncccc2C(=O)N1Cc1ccc(-c2ccc(O[C@@H](C)COC)c3nn(C)cc23)cc1F
2. [2H]C1([2H])c2ncccc2C(=O)N1Cc1c(F)cc(-c2cccc3c2cnn3CC)cc1F

1: ≥ 10 µM; 2: > 10 µM

* * *

target: human mAChR M1 (Homo sapiens); test: mAChR M1 cell-based functional assay (calcium mobilization), agonist mode: compound alone, Emax relative to acetylcholine maximum; details: relative to the maximum for acetylcholine
measurement.kind: Emax (%)
One number for each entry, in %.

These solved cases illustrate the format of a correct answer.
[2H]C1([2H])c2ncccc2C(=O)N1Cc1ccc(-c2cnc3nn(C([2H])([2H])[2H])cc3c2)cc1F : 16
[2H]C1([2H])c2ncccc2C(=O)N1Cc1c(F)cc(-c2ccc(OC)c3n[nH]cc23)cc1F : 2
[2H]C1([2H])c2ncccc2C(=O)N1Cc1c(F)cc(-c2c(F)ccc3nn(C)cc23)cc1F : 3
[2H]C1([2H])c2ncccc2C(=O)N1Cc1ccc(-c2cnc3nn(C)cc3c2)cc1F : 6
[2H]C1([2H])c2ncccc2C(=O)N1Cc1c(F)cc(-c2cc(F)c(Cl)c3nn(C([2H])([2H])[2H])cc23)cc1F : 2
[2H]C1([2H])c2ncccc2C(=O)N1Cc1c(F)cc(-c2ccc(OCC3CC3)c3nn(C)cc23)cc1F : 11

Now examine the next entry.
# molecule [2H]C1([2H])c2ncccc2C(=O)N1Cc1c(F)cc(-c2ccc(C)c3c2cnn3C([2H])([2H])[2H])cc1F ; its Emax = 2
